B1: tRNA (parent)
chain: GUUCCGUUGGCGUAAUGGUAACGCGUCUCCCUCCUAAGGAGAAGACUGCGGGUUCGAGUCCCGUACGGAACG

Variants of: B1
Experiment: yeast fitness relative to wild type (ratio to wild type); higher = fitter; tRNA-Arg(CCU), competitive growth, 37 C, YPD
Fewer inactive variants are shown than the library holds.
parameter.measured: yeast fitness
Would you mind answering with just the numeric figure?

Known yeast fitness results, listed for orientation:
U13C C27G A40U C66U ... 0.538
A43U C46G ... 0.829
U32C C49G ... 1.02

Query: For the variant A15U G67A , report yeast fitness.
Reply: 0.654

Query: For the variant U8C C66G , report yeast fitness.
Reply: 0.75

Query: For the variant A37G A40U A65G , report yeast fitness.
Reply: 0.571

Query: For the variant U54A A65G , report yeast fitness.
Reply: 0.584

Query: For the variant G9C G10C , report yeast fitness.
Reply: 0.68

Query: For the variant G12A C49U G58A , report yeast fitness.
Reply: 0.7

Query: For the variant C46U G56C A69U , report yeast fitness.
Reply: 0.54

Query: For the variant C5U G48A , report yeast fitness.
Reply: 0.891

Query: For the variant U8A U59C , report yeast fitness.
Reply: 0.748

Query: For the variant A40U U53C , report yeast fitness.
Reply: 0.735

Query: For the variant C29G C49A , report yeast fitness.
Reply: 0.664

Query: For the variant U32C C33A , report yeast fitness.
Reply: 0.628

Query: For the variant C29G C49G A57G , report yeast fitness.
Reply: 0.6

Query: For the variant C5G G6A G50C , report yeast fitness.
Reply: 0.608

Query: For the variant C46G G67C , report yeast fitness.
Reply: 0.86

Query: For the variant C31A A40C G52A C61A , report yeast fitness.
Reply: 0.528

Query: For the variant G9C C11A A40C , report yeast fitness.
Reply: 0.671

Query: For the variant U7C G48C C62U , report yeast fitness.
Reply: 0.548

Query: For the variant G6C C34A , report yeast fitness.
Reply: 0.611
